Reported IC50 values are given for each entry in this list.
Measurement Target: LSD1 (Homo sapiens)
Construct: Reaction Biology Corporation (performed the assay)
Assay Summary: LSD1 fluorescence coupling enzyme assay (Reaction Biology Corporation)
Format: biochemical
Assay Context: Reaction Biology Corp., 30 min pre-incubation, 10 μM histone H3(1-21)K4me2 peptide substrate; read-out: IC50, LSD1 demethylase activity
Procedure: The inhibitory activity of HCl 489479, OLC, and OLP was measured using a fluorescence coupling enzyme assay (performed by Reaction Biology Corporation). […] All compounds were pre-incubated for 30 min with the enzyme before the addition of 10 μM histone H3(1-21)K4me2 peptide substrate to start the reaction. Fluorescence was measured using an EnVision Multimode Plate Reader at Ex/Em = 535/590.
# output: bare number, implied unit nM

A selection of reference data follows.
CC(=O)OCCc1ccc(O)c(O)c1 [HTA, hydroxytyrosol acetate] | 31
C/C=C(/C=O)[C@@H](CC=O)CC(=O)OCCc1ccc(O)cc1 | 12000
OCCc1ccc(O)c(O)c1 [HT, hydroxytyrosol] | 570

Here's the next entry for you.
Challenge: Given the entry COC(=O)[C@H](O)CC(=O)OCCc1ccc(O)c(O)c1 [OLP, oleohydroxypyretol] , report its measured IC50.
Response given: 120
